Quick list: self-cleavage per entry.
B1: Osa-1-4 twister ribozyme (parent)
chain: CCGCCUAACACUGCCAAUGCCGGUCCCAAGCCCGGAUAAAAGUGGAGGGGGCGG

Variants of: B1
protocol-notes: self-cleavage, relative activity (ratio to wild type); higher = more cleavage; co-transcriptional
Please state the value as a number alone, without comment.

>>> print(df.to_string())
   mutant_name  quantity_kind  result_number
0    C52A G23U  self-cleavage           0.09
1         A10G  self-cleavage           0.91
2    G48C U12C  self-cleavage           0.05
3    A36U G51A  self-cleavage           0.84
4    C26U G49A  self-cleavage           0.06

# next variant below
Short answer for A16G C20A : self-cleavage was 0.86
